Taken from patent US20240059688A1.

For each record, write down the corresponding CaV 3.2 % CaCl2 Inhibition.
# study_system: CaV 3.2 (Homo sapiens)
# Construct: expressed in transfected cells
# Sequence (O95180 whole entry): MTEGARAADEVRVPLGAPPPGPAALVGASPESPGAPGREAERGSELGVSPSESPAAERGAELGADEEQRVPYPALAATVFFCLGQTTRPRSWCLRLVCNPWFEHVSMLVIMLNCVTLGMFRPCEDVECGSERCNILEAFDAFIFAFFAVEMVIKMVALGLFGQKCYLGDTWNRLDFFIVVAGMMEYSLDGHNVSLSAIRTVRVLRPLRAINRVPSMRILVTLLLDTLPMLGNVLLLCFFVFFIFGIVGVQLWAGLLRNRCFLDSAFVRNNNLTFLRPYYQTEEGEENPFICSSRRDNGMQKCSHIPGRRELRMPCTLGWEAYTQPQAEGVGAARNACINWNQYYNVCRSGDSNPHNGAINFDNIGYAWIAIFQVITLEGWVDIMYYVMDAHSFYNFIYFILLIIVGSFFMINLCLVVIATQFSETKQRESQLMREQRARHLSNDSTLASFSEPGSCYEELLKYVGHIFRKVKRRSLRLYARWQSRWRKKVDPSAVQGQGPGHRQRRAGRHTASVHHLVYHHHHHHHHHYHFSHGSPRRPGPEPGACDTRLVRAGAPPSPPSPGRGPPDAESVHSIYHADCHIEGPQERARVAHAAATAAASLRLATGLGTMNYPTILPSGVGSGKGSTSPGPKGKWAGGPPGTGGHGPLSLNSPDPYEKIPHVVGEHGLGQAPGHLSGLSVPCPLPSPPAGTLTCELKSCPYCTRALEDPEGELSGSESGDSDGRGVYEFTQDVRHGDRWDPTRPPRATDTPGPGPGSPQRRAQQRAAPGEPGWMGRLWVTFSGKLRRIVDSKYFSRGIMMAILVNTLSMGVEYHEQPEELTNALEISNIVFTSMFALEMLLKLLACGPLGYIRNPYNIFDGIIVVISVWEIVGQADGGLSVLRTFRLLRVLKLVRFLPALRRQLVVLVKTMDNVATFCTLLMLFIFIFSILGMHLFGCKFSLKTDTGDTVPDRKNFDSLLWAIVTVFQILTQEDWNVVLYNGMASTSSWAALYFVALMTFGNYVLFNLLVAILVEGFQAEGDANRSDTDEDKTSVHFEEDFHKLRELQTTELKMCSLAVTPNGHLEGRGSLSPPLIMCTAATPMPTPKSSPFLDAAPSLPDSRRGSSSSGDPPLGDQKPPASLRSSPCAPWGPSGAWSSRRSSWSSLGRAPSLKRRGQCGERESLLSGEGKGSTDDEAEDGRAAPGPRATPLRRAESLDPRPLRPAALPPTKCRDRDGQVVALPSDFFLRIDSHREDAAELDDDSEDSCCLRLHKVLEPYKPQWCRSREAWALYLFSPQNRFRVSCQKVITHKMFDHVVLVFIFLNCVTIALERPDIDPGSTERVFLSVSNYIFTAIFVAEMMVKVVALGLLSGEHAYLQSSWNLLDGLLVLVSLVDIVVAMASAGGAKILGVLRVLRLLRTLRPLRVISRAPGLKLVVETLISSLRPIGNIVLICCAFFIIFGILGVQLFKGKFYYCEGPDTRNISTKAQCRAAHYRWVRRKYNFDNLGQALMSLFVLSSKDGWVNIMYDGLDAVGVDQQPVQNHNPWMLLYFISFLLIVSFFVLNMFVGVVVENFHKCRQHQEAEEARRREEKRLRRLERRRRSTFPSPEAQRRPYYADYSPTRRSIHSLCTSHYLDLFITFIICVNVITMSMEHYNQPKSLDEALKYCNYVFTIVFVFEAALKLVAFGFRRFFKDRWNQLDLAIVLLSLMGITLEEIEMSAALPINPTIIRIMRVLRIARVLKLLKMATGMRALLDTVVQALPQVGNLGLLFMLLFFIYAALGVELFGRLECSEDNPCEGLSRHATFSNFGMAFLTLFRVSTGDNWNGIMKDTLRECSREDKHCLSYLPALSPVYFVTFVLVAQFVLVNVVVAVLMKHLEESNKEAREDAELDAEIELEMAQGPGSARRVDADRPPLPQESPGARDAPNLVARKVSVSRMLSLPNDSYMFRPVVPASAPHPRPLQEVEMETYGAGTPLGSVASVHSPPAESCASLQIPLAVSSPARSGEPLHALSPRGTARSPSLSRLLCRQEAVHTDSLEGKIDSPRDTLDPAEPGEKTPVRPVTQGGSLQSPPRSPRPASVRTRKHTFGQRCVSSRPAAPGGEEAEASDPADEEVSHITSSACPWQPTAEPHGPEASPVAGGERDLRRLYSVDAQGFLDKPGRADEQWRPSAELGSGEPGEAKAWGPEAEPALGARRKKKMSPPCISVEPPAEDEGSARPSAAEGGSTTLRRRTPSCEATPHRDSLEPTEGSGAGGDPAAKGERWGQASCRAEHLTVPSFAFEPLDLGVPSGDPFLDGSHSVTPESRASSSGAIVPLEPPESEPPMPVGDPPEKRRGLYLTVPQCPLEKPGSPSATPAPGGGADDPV
# assay_summary: CaV 3.2 calcium assay in stable human CaV3.2-HEK293 cells
# Type: cell-based
# condition_info: control agonist calcium chloride
One number for each entry, in %.

C/C=C1/CN2CC[C@H]1C(=O)c1[nH]c3ccc(Cl)cc3c1C2: 5
C/C=C1/CN(CCc2ccc(F)cc2)CC[C@H]1C(=O)c1cc2ccccc2[nH]1: 45
C/C=C1/CN(Cc2ccc(OC)cc2)CC[C@H]1C(=O)c1cc2ccccc2[nH]1: 50

// each molecule listed below needs its CaV 3.2 % CaCl2 Inhibition
1. CCOC(=O)c1[nH]c2ccccc2c1CN1CCC(C(=O)OC)CC1
2. CCC1CN2CC[C@H]1C(=O)c1[nH]c3ccccc3c1C2 (stereo partly shown)
3. C/C=C1/CN2CC[C@H]1C(=O)c1[nH]c3ccccc3c1C2

19
2
−7

// each listed molecule needs a value for CaV 3.2 % CaCl2 Inhibition
1. C/C=C1/CN2CC[C@H]1C(=O)c1[nH]c3cc(F)ccc3c1C2
2. C=C1c2[nH]c3ccccc3c2CN2CC[C@@H]1/C(=C\C)C2
3. C/C=C1/CN(CCC)CC[C@H]1C(=O)c1cc2ccccc2[nH]1

1
21
5

Go through the list and state CaV 3.2 % CaCl2 Inhibition for each entry.
1. C/C=C1/CNCC[C@H]1C(=O)c1cc2ccccc2[nH]1
2. C/C=C1/CN(CCCCC)CC[C@H]1C(=O)c1cc2ccccc2[nH]1
3. O=C(c1cc2ccccc2[nH]1)C1CCN(Cc2ccccc2)CC1
4. C/C=C1/CN2CC[C@H]1C(=O)c1[nH]c3ccc(F)cc3c1C2
5. CCOC(=O)C1CCN(Cc2c[nH]c3ccccc23)CC1
6. C/C=C1/CN(CC(C)C)CC[C@H]1C(=O)c1cc2ccccc2[nH]1
7. C/C=C1/CN2CC[C@H]1C(=O)c1[nH]c3ccc(OC)cc3c1C2

1: −14; 2: 42; 3: −2; 4: 6; 5: −11; 6: −3; 7: 9

* * *

# study_system: human CXCR4 (Homo sapiens)
# Construct: host or cells: C2C12
# Sequence (P61073 whole entry): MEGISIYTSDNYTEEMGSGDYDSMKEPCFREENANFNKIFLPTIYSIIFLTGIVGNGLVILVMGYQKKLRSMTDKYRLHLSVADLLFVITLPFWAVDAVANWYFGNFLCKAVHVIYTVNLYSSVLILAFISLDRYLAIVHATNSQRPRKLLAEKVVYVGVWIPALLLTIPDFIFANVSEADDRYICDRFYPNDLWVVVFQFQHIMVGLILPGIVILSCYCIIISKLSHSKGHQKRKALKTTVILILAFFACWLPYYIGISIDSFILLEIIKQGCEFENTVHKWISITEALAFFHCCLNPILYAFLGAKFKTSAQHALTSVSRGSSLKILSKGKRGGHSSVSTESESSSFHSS
# assay_summary: CXCR4 β-arrestin recruitment assay (PathHunter)
# Assay type: cell-based
# condition_info: human CXCR4-C2Cl2 cells, relative to CXCL-12
measured_parameter: CXCR4 β-arrestin % CXCL-12Emax (n = 2) (%)
Give bare numbers, in %.

C/C=C1/CN2CC[C@H]1C(=O)c1[nH]c3ccccc3c1C2: 3
C/C=C1/CN(CCCCN)CC[C@H]1C(=O)c1cc2ccccc2[nH]1: 3
O=C(c1cc2ccccc2[nH]1)C1CCN(Cc2ccccc2)CC1: 8
C/C=C1/CN(CC2CCCCC2)CC[C@H]1C(=O)c1cc2ccccc2[nH]1: 8
C/C=C1/CN(Cc2ccc(OC)cc2)CC[C@H]1C(O)c1cc2ccccc2n1S(=O)(=O)c1ccccc1 (stereo partly drawn): 10
CCCCCN1CCN(C(=O)c2cc3ccccc3[nH]2)C2(CC2)C1: 11
C/C=C1/CN2CC[C@H]1C(=O)c1[nH]c3cc(F)ccc3c1C2: 1
C/C=C1/CN(CCCCCCC)CC[C@H]1C(=O)c1cc2ccccc2[nH]1: 12
C=C1c2[nH]c3ccccc3c2CN2CC[C@@H]1/C(=C\C)C2: 6
C/C=C1/CN(CCCCC)CC[C@H]1C(=O)c1cc2ccccc2[nH]1: 4

Answer for every listed entry: what is its CXCR4 β-arrestin % CXCL-12Emax (n = 2)? The entries follow.
1. CCCCCN1CCN(C(=O)c2cc3ccccc3n2CCCCC)C2(CC2)C1
2. C/C=C1/CN(Cc2ccc(OC)cc2)CC[C@H]1C(O)c1cc2cc(-c3ccc(F)cc3)ccc2n1S(=O)(=O)c1ccccc1 (stereo partly drawn)

1: 5; 2: 11

Hey, can you go through the list below and give me CXCR4 β-arrestin % CXCL-12Emax (n = 2) for every item?
1. C/C=C1/CN(CCCCCC(=O)OC)CC[C@H]1C(=O)c1cc2ccccc2[nH]1
2. C/C=C1/CN(CCCCOc2ccccc2)CC[C@H]1C(=O)c1cc2ccccc2[nH]1
3. C/C=C1/CN(CCCCC)CC[C@H]1C(=O)c1cc2ccc(F)cc2[nH]1
4. CCOC(=O)C1CCN(Cc2c[nH]c3ccccc23)CC1
5. CCCCCN1CCCN(C(=O)c2cc3ccccc3[nH]2)CC1
6. CC(C)(C)OC(=O)N1CCCN(C(=O)c2cc3ccccc3[nH]2)CC1
7. CCCCCN1CC[C@H](NC(=O)c2cc3cc(OC)c(OC)c(OC)c3[nH]2)C1
8. CCOC(=O)C(c1[nH]c2ccccc2c1C=O)C1CCN(S(=O)(=O)c2ccc(C)cc2)C/C1=N\O[Si](C)(C)C(C)(C)C (stereo not drawn)

[4, 4, 10, 7, 7, 4, 10, 16]

Look up CXCR4 β-arrestin % CXCL-12Emax (n = 2) for the entries below, preserving their order.
1. CCOC(=O)c1[nH]c2ccccc2c1CN1CCC(C(=O)OC)CC1
2. C/C=C1/CN(CCCCC)CC[C@H]1C(=O)c1cc2cc(C(C)=O)ccc2n1CCCCC
3. C/C=C1/CN(CCCCCC)CC[C@H]1C(=O)c1cc2ccccc2[nH]1
4. CCCCCN1CC[C@H](NC(=O)c2cc3ccccc3[nH]2)C1
5. C/C=C1/CN(CCCCC)CC[C@H]1C(O)c1cc2ccccc2n1S(=O)(=O)c1ccccc1 (stereo partly drawn)
6. C/C=C1/CN(CCCCC)CC[C@H]1C(=O)c1cc2cc(Cl)ccc2[nH]1
7. O=C(c1cc2ccccc2[nH]1)N1CCNCC12CC2

7
8
5
15
3
15
4
